assay: Selectivity index, ratio of IC50 for cytotoxicity against African green monkey Vero cells to MIC for antimycobacterial activity against Mycobacterium tuberculosis H37Rv ATCC 27294; format: toxicity, cell-based; conditions: read-out: Selectivity Index
reportedEndpoint: selectivity ratio
Lab note: record just the number, no unit beside it.

I have this compound here, `C/C=C/C[C@@H]1NC(=O)[C@H](CC(C)C)N2C=C(C)C[C@@H](C2=O)N(C)C(=O)[C@H](C)NC(=O)[C@H](Cc2ccc(OC)c([N+](=O)[O-])c2)NC(=O)[C@H](CC(C)C)N(C)C(=O)[C@H](Cc2cn(C(C)(C)[C@H]3CO3)c3ccccc23)NC1=O` , and I need its recorded selectivity ratio.
1300

---

assay: Cytotoxicity against African green monkey Vero cells; assay type: toxicity, cell-based; details: African green monkey (Chlorocebus sabaeus)
reportedEndpoint: IC50

Examples from the recorded data:
molecule	IC50
C/C=C/C[C@@H]1NC(=O)[C@H](CC(C)C)N2C=C(C)C[C@@H](C2=O)N(C)C(=O)[C@H](C)NC(=O)[C@H](Cc2ccc(O)c(N)c2)NC(=O)[C@H](CC(C)C)N(C)C(=O)[C@H](Cc2cn(C(C)(C)[C@H](O)CCl)c3ccccc23)NC1=O	> 100 µM
C/C=C/C[C@@H]1NC(=O)[C@H](CC(C)C)N2C(=O)[C@H](CC(C)[C@H]2OC)N(C)C(=O)[C@H](C)NC(=O)[C@H](Cc2ccc(OC(C)=O)c([N+](=O)[O-])c2)NC(=O)[C@H](CC(C)C)N(C)C(=O)[C@H](Cc2cn(C(C)(C)[C@H](O)CCl)c3ccccc23)NC1=O (some centres undefined)	> 100 µM
C/C=C/C[C@@H]1NC(=O)[C@H](CC(C)C)N2C=C(C)C[C@@H](C2=O)N(C)C(=O)[C@H](C)NC(=O)[C@H](Cc2ccc3oc(=O)[nH]c3c2)NC(=O)[C@H](CC(C)C)N(C)C(=O)[C@H](Cc2cn(C(C)(C)[C@H](O)CCl)c3ccccc23)NC1=O	> 100 µM

Kindly review the next molecule as well.
I would be grateful if you could share the reported IC50 for `C/C=C/C[C@@H]1NC(=O)[C@H](CC(C)C)N2C(=O)[C@H](C[C@@H](C)[C@@H]2OCCCC)N(C)C(=O)[C@H](C)NC(=O)[C@H](Cc2ccc(O)c([N+](=O)[O-])c2)NC(=O)[C@H](CC(C)C)N(C)C(=O)[C@H](Cc2cn(C(C)(C)[C@H](O)CCl)c3ccccc23)NC1=O` .
95 µM

---

The entries below are paired with their reported MIC.
test system: Mycobacterium tuberculosis; assay: Antimycobacterial activity against Mycobacterium tuberculosis H37Rv ATCC 27294 assessed as reduction in bacterial growth by microplate alamar blue assay; type: functional
The reply should be a number in nM, with the unit left off.

compound	MIC, nM
C/C=C/C[C@@H]1NC(=O)[C@H](CC(C)C)N2C(=O)[C@H](CC(C)[C@H]2OC)N(C)C(=O)[C@H](C)NC(=O)[C@H](Cc2ccc(O)c([N+](=O)[O-])c2)NC(=O)[C@H](CC(C)C)N(C)C(=O)[C@H](Cc2cn(C(C)(C)[C@H]3CO3)c3ccccc23)NC1=O (some centres not stated)	2

Quick check: MIC of C/C=C/C[C@@H]1NC(=O)[C@H](CC(C)C)N2C(=O)[C@H](CC(C)[C@H]2OC)N(C)C(=O)[C@H](C)NC(=O)[C@H](Cc2ccc(OC(C)=O)c([N+](=O)[O-])c2)NC(=O)[C@H](CC(C)C)N(C)C(=O)[C@H](Cc2cn(C(C)(C)[C@H](O)CCl)c3ccccc23)NC1=O (some centres not stated) ?
5

---

tested on: Mycobacterium tuberculosis; test: Antimycobacterial activity against Mycobacterium tuberculosis H37Rv ATCC 27294 assessed as reduction in bacterial growth by microplate alamar blue assay; type: functional
reportedEndpoint: MIC

The cases that follow already have their MIC on record.
compound	MIC
C/C=C/C[C@@H]1NC(=O)[C@H](CC(C)C)N2C(=O)[C@H](CC(C)[C@H]2OC(C)=O)N(C)C(=O)[C@H](C)NC(=O)[C@H](Cc2ccc(OC(C)=O)c([N+](=O)[O-])c2)NC(=O)[C@H](CC(C)C)N(C)C(=O)[C@H](Cc2cn(C(C)(C)[C@H]3CO3)c3ccccc23)NC1=O (some centres undefined)	0.004 µM
C/C=C/C[C@@H]1NC(=O)[C@H](CC(C)C)N2C(=O)[C@H](C[C@@H](C)[C@@H]2OCCCC)N(C)C(=O)[C@H](C)NC(=O)[C@H](Cc2ccc(O)c([N+](=O)[O-])c2)NC(=O)[C@H](CC(C)C)N(C)C(=O)[C@H](Cc2cn(C(C)(C)[C@H](O)CCl)c3ccccc23)NC1=O	0.77 µM
C/C=C/C[C@@H]1NC(=O)[C@H](CC(C)C)N2C(=O)[C@H](CC(C)[C@H]2OC)N(C)C(=O)[C@H](C)NC(=O)[C@H](Cc2ccc(OC)c([N+](=O)[O-])c2)NC(=O)[C@H](CC(C)C)N(C)C(=O)[C@H](Cc2cn(C(C)(C)[C@H]3CO3)c3ccccc23)NC1=O (some centres undefined)	0.006 µM

Let's switch to this compound now.
For the compound shown here, `C/C=C/C[C@@H]1NC(=O)[C@H](CC(C)C)N2C=C(C)C[C@@H](C2=O)N(C)C(=O)[C@H](C)NC(=O)[C@H](Cc2ccc(OC(C)=O)c([N+](=O)[O-])c2)NC(=O)[C@H](CC(C)C)N(C)C(=O)[C@H](Cc2cn(C(C)(C)[C@H](O)CCl)c3ccccc23)NC1=O` , give the reported MIC.
0.022 µM

---

system: Mycobacteroides abscessus; experiment: Antimycobacterial activity against Mycobacterium abscessus ATCC 19977 assessed as reduction in bacterial growth by microplate Alamar blue assay; format: functional
reportedEndpoint: MIC (µM)
Give your result in µM as a bare value.

What value of MIC has been reported for the following compound? `C/C=C/C[C@@H]1NC(=O)[C@H](CC(C)C)N2C=C(C)C[C@@H](C2=O)N(C)C(=O)[C@H](C)NC(=O)[C@H](Cc2ccc(O)c(N)c2)NC(=O)[C@H](CC(C)C)N(C)C(=O)[C@H](Cc2cn(C(C)(C)[C@H](O)CCl)c3ccccc23)NC1=O`
8.3

---

assay: Cytotoxicity against African green monkey Vero cells; assay type: toxicity, cell-based; conditions: African green monkey (Chlorocebus sabaeus)
pIC50: −log10 of the molar value.
reportedEndpoint: pIC50

compound	pIC50
C/C=C/C[C@@H]1NC(=O)[C@H](CC(C)C)N2C(=O)[C@H](CC(C)[C@H]2OC)N(C)C(=O)[C@H](C)NC(=O)[C@H](Cc2ccc(O)c([N+](=O)[O-])c2)NC(=O)[C@H](CC(C)C)N(C)C(=O)[C@H](Cc2cn(C(C)(C)[C@H](O)CCl)c3ccccc23)NC1=O (stereo partly drawn)	< 4.00

Tell me the measured pIC50 of `C/C=C/C[C@@H]1NC(=O)[C@H](CC(C)C)N2C(=O)[C@H](C[C@H](C)[C@H]2OCC)N(C)C(=O)[C@H](C)NC(=O)[C@H](Cc2ccc(O)c([N+](=O)[O-])c2)NC(=O)[C@H](CC(C)C)N(C)C(=O)[C@H](Cc2cn(C(C)(C)[C@H](O)CCl)c3ccccc23)NC1=O` , please.
< 4.00

Field entry: `C/C=C/C[C@@H]1NC(=O)[C@H](CC(C)C)N2C=C(C)C[C@@H](C2=O)N(C)C(=O)[C@H](C)NC(=O)[C@H](Cc2ccc(O)c(NC(=O)CCl)c2)NC(=O)[C@H](CC(C)C)N(C)C(=O)[C@H](Cc2cn(C(C)(C)[C@H](O)CCl)c3ccccc23)NC1=O`
< 4.00

What would you report for C/C=C/C[C@@H]1NC(=O)[C@H](CC(C)C)N2C(=O)[C@H](CC(C)[C@H]2OCCC)N(C)C(=O)[C@H](C)NC(=O)[C@H](Cc2ccc(O)c([N+](=O)[O-])c2)NC(=O)[C@H](CC(C)C)N(C)C(=O)[C@H](Cc2cn(C(C)(C)[C@H](O)CCl)c3ccccc23)NC1=O (stereo partly drawn) ?
< 5.00

---

selectivity ratio values, listed per item
assay: Selectivity index, ratio of IC50 for cytotoxicity against African green monkey Vero cells to MIC for antimycobacterial activity against Mycobacterium tuberculosis H37Rv ATCC 27294; assay type: toxicity, cell-based; details: read-out: Selectivity Index

molecule	selectivity ratio
C/C=C/C[C@@H]1NC(=O)[C@H](CC(C)C)N2C=C(C)C[C@@H](C2=O)N(C)C(=O)[C@H](C)NC(=O)[C@H](Cc2ccc(O)c(N)c2)NC(=O)[C@H](CC(C)C)N(C)C(=O)[C@H](Cc2cn(C(C)(C)[C@H](O)CCl)c3ccccc23)NC1=O	> 110
C/C=C/C[C@@H]1NC(=O)[C@H](CC(C)C)N2C(=O)[C@H](CC(C)[C@H]2OC)N(C)C(=O)[C@H](C)NC(=O)[C@H](Cc2ccc(O)c([N+](=O)[O-])c2)NC(=O)[C@H](CC(C)C)N(C)C(=O)[C@H](Cc2cn(C(C)(C)[C@H](O)CCl)c3ccccc23)NC1=O (some centres undefined)	> 20000
C/C=C/C[C@@H]1NC(=O)[C@H](CC(C)C)N2C(=O)[C@H](CC(C)[C@H]2OC)N(C)C(=O)[C@H](C)NC(=O)[C@H](Cc2ccc(OC(C)=O)c([N+](=O)[O-])c2)NC(=O)[C@H](CC(C)C)N(C)C(=O)[C@H](Cc2cn(C(C)(C)[C@H](O)CCl)c3ccccc23)NC1=O (some centres undefined)	> 20000

Endpoint output: selectivity ratio of C/C=C/C[C@@H]1NC(=O)[C@H](CC(C)C)N2C(=O)[C@H](CC(C)[C@H]2O)N(C)C(=O)[C@H](C)NC(=O)[C@H](Cc2ccc(OC(C)=O)c([N+](=O)[O-])c2)NC(=O)[C@H](CC(C)C)N(C)C(=O)[C@H](Cc2cn(C(C)(C)[C@H]3CO3)c3ccccc23)NC1=O (mixture of isomers) . Value?
11000
